System under test: T1, TNFR1 (Homo sapiens, UniProt P19438)
T1 chain: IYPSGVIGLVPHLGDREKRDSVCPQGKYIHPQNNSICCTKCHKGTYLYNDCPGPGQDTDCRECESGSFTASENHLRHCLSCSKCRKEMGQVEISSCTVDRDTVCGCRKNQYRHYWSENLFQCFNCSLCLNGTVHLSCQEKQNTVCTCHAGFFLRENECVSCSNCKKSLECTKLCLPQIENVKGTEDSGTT
Measurement description: yeast display SC50
Classify as follows. Reported apparent Kd (screen) greater than or equal to 4 nM: Satisfied. Reported apparent Kd (screen) below: Not satisfied.

Binder: E103V (designed binder) SMEEEVEKAAKEYEKKKKEAIEKHLEKLKAKDKEAAERFLKELEEAAKEYAKDEAKTMSEEEAKRRAKKYKEKVLLSELSEEEQKEIKEAEEKLVRTILKYVVEAAK
Qualitative label: Not satisfied

Binder: E49D (designed binder) SMEEEVEKAAKEYEKKKKEAIEKHLEKLKAKDKEAAERFLKELEEAAKDYAKDEAKTMSEEEAKRRAKKYKEKVLLSELSEEEQKEIKEAEEKLVRTILKYVEEAAK
Qualitative label: Satisfied

Binder: Y13V (designed binder) SMEEEVEKAAKEVEKKKKEAIEKHLEKLKAKDKEAAERFLKELEEAAKEYAKDEAKTMSEEEAKRRAKKYKEKVLLSELSEEEQKEIKEAEEKLVRTILKYVEEAAK
Qualitative label: Satisfied

Binder: M58I (designed binder) SMEEEVEKAAKEYEKKKKEAIEKHLEKLKAKDKEAAERFLKELEEAAKEYAKDEAKTISEEEAKRRAKKYKEKVLLSELSEEEQKEIKEAEEKLVRTILKYVEEAAK
Qualitative label: Satisfied

Binder: E92N (designed binder) SMEEEVEKAAKEYEKKKKEAIEKHLEKLKAKDKEAAERFLKELEEAAKEYAKDEAKTMSEEEAKRRAKKYKEKVLLSELSEEEQKEIKEAENKLVRTILKYVEEAAK
Qualitative label: Not satisfied

Consider now this further binder.
Please tell me: is the binder A36L (designed binder) SMEEEVEKAAKEYEKKKKEAIEKHLEKLKAKDKEALERFLKELEEAAKEYAKDEAKTMSEEEAKRRAKKYKEKVLLSELSEEEQKEIKEAEEKLVRTILKYVEEAAK at or over 4 nM in terms of apparent Kd (screen)?
Not satisfied

Cited source: paper PMC12416549
